- Tested on: HepG2
- experiment.notes: GSK_TCMDC: Percent inhibition of human HepG2 cell line. Test compounds present at 10uM.
- Format: functional
Reported Inhibition values are given for each entry in this list.
measured.quantity: Inhibition

>  <compound>
N[C@@H](Cc1cc(I)c(Oc2ccc(O)c(C(=O)O)c2)c(I)c1)C(=O)O

>  <measured.target>
HepG2

>  <reported.value>
57%

$$$$
>  <compound>
O=C(Cn1c(CCc2cccc(F)c2F)nc(=O)c2ccccc21)N(CCCN1CCCC1)Cc1ccc(-c2ccc(C(F)(F)F)cc2)cc1.O=C(O)C(O)C(O)C(=O)O

>  <measured.target>
HepG2

>  <reported.value>
54%

$$$$
>  <compound>
COc1ccc(-c2cccc(NC(=O)c3ccc(C#N)cc3)c2)cc1CN1CCCN(C)CC1.O=C(O)C(F)(F)F

>  <measured.target>
HepG2

>  <reported.value>
22%

$$$$
>  <compound>
O=C(O)C(F)(F)F.O=C1CCCN1CCCNCc1ccc(-c2ccc(-c3nc4cc(F)ccc4[nH]3)cc2)cc1

>  <measured.target>
HepG2

>  <reported.value>
16%

$$$$
>  <compound>
Br.CC1(C)NC(N)=NC(=N)N1OCCCOc1cccc(Cl)c1

>  <measured.target>
HepG2

>  <reported.value>
65%

$$$$
>  <compound>
COc1ccc(-c2ccc(S(=O)(=O)Nc3cc4c(cc3OC(C)C)CCNCC4)cc2)cc1.Cl

>  <measured.target>
HepG2

>  <reported.value>
16%

$$$$
>  <compound>
COc1cccc2cc(C(=O)N[C@@H](CC(C)C)C(=O)N[C@H](/C=N/N3C(=O)CN(Cc4ccccc4)C3=O)CCc3ccccc3)oc12

>  <measured.target>
HepG2

>  <reported.value>
14%

$$$$
>  <compound>
CC(C)(C)SCC(O)Cn1c2ccc(Br)cc2c2cc(Br)ccc21 (stereo not given)

>  <measured.target>
HepG2

>  <reported.value>
4%

$$$$
>  <compound>
O=C(Nc1cccc(CN2CCN(Cc3cccc(O)c3)CC2)c1)c1cc2ccccc2s1.O=C(O)C(F)(F)F

>  <measured.target>
HepG2

>  <reported.value>
13%

$$$$
>  <compound>
O=C(c1cc(C(=O)NC2CCCCC2)c(=O)n(C2CCCCC2)c1)c1cc(F)ccc1O

>  <measured.target>
HepG2

>  <reported.value>
22%

$$$$
>  <compound>
C[C@H](Cc1ccc(C[C@@H](C)NCC(O)c2cc(Cl)c(N)c(Cl)c2)cc1)NCC(O)c1cc(Cl)c(N)c(Cl)c1 (stereo not given in full)

>  <measured.target>
HepG2

>  <reported.value>
26%

$$$$
>  <compound>
COc1ccccc1N1CCN(C(C(=O)NCc2ccc3c(c2)OCO3)c2ccc3c(c2)OCCCO3)CC1 (stereo not given)

>  <measured.target>
HepG2

>  <reported.value>
15%

$$$$
>  <compound>
COc1ccc2ncc(F)c(CCN3CC[C@H](NCc4cc5c(s4)CCCN5)[C@H](O)C3)c2n1.Cl

>  <measured.target>
HepG2

>  <reported.value>
2%

$$$$
>  <compound>
COc1ccc2nccc([C@@H](O)CN3CCC(NCc4ccc5c(c4)NC(=O)CO5)CC3)c2c1.Cl

>  <measured.target>
HepG2

>  <reported.value>
1%

$$$$
>  <compound>
CCNC(=O)N1CCc2ccc(Oc3nc(NCc4ccccc4OC)ncc3C)cc2CC1.O=C(O)C(F)(F)F

>  <measured.target>
HepG2

>  <reported.value>
0%

$$$$
>  <compound>
N#Cc1ccc(C(=O)Nc2ccc(Cl)c(N3CCN(CCc4ccccc4)CC3)c2)cc1.O=C(O)C(F)(F)F

>  <measured.target>
HepG2

>  <reported.value>
5%

$$$$
>  <compound>
CCCCCOc1ccc(C(=NC)N(CCCCC)CCCCC)c2ccccc12.I

>  <measured.target>
HepG2

>  <reported.value>
70%

$$$$
>  <compound>
O=C(Nc1cccc(CN2CCCN(CC3CC3)CC2)c1)c1ccc(-c2ccccc2)cc1.O=C(O)C(F)(F)F

>  <measured.target>
HepG2

>  <reported.value>
15%

$$$$
>  <compound>
CCc1nc(N)nc(N)c1CCCOc1ccccc1Cl.Cl

>  <measured.target>
HepG2

>  <reported.value>
61%

$$$$
>  <compound>
O=C(CCCc1ccccc1)Nc1cccc(N2CCC(N3CCN(c4ccccc4O)CC3)CC2)c1

>  <measured.target>
HepG2

>  <reported.value>
31%

$$$$
>  <compound>
CC(=O)Nc1ccccc1OCc1cc2cc(C(=O)N3CCC(N4C(=O)OCc5ccccc54)CC3)ccc2o1

>  <measured.target>
HepG2

>  <reported.value>
34%

$$$$
>  <compound>
Cc1cc(C(=O)OCC(N)=O)c(C)n1-c1ccc(F)cc1

>  <measured.target>
HepG2

>  <reported.value>
0%

$$$$
>  <compound>
N#Cc1cc(C(=O)Nc2ccccc2)c(N)nc1SCC(=O)Nc1ccc(Br)cc1

>  <measured.target>
HepG2

>  <reported.value>
11%

$$$$
>  <compound>
Cc1ccc(NC(=O)NC2CCN(CCC(NC(=O)Cc3ccccc3)c3ccc(Cl)c(Cl)c3)CC2)cc1 (stereo not given)

>  <measured.target>
HepG2

>  <reported.value>
16%

$$$$
>  <compound>
CCOc1c(N2CCN(CCCCNC(=O)c3ccc(NC(=O)c4ccc(Cl)cc4)cc3)CC2)ccc2ccccc12.Cl

>  <measured.target>
HepG2

>  <reported.value>
18%

$$$$
>  <compound>
O=C(NCCN1CCCC1)N1CCCN(c2ncnc3cc(-c4ccc(F)cc4)sc23)CC1.O=C(O)C(F)(F)F

>  <measured.target>
HepG2

>  <reported.value>
5%

$$$$
>  <compound>
O=C(Cc1ccc(-n2cnnn2)cc1)N(Cc1cncn1Cc1cccc(C(F)(F)F)c1)CC1CC1

>  <measured.target>
HepG2

>  <reported.value>
0%

$$$$
>  <compound>
COc1ccc(NC(=O)Nc2cc(C)nc3ccccc23)cc1Cl

>  <measured.target>
HepG2

>  <reported.value>
4%

$$$$
>  <compound>
CCCCN(CCCC)/C(=N/C(=N)Nc1ccc(Cl)cc1)NCCCCCCN/C(=N\C(=N)Nc1ccc(Cl)cc1)N(CCCC)CCCC

>  <measured.target>
HepG2

>  <reported.value>
0%

$$$$
>  <compound>
COc1ccc2nccc([C@@H](O)CN3CCC(NC(=O)c4ccc(Cl)c([N+](=O)[O-])c4)CC3)c2c1

>  <measured.target>
HepG2

>  <reported.value>
14%

$$$$
>  <compound>
CN(C)C1CCN(CC#Cc2cc3ncnc(Nc4ccc(OCc5cccc(F)c5)c(Cl)c4)c3s2)CC1

>  <measured.target>
HepG2

>  <reported.value>
34%

$$$$
>  <compound>
COc1ccccc1C1CCN(C2CCC(NC(=O)c3cc(-c4ccc(Cl)cc4)cs3)CC2)CC1 (stereo not given)

>  <measured.target>
HepG2

>  <reported.value>
61%

$$$$
>  <compound>
O=C(NCCN1CCCC1)c1ccc(-c2ccc(-c3nc4cc(C(F)(F)F)ccc4[nH]3)s2)cc1

>  <measured.target>
HepG2

>  <reported.value>
31%

$$$$
>  <compound>
O=C(NCCCN1CCOCC1)c1csc(Nc2ccc(Cl)c(Cl)c2)n1

>  <measured.target>
HepG2

>  <reported.value>
5%

$$$$
>  <compound>
CCC[C@@H]([C@@H](CC1CCCCC1)C(=O)N[C@@H](CCCCNS(C)(=O)=O)C(=O)Nc1nccs1)N(O)C=O

>  <measured.target>
HepG2

>  <reported.value>
0%

$$$$
